# subject_of_test: T1, Anti-PSMA Fab (SEQ ID NOs: 19, 20)
# T1 construct: also called 006 PSMA Fab
# protocol: phage ELISA; clonal phage on captured PSMA Fab pre-incubated with PSMA antigen as competitor, anti-M13 HRP detection
Assign class 1 to entries whose Phage binding ELISA, Anti-PSMA Fab signal in the presence of PSMA meets or exceeds 0.07; assign class 0 to the rest.

| binder | category |
| --- | --- |
| DCHWNKATWWMDCE [Phage-1757] | class 1 |
| MEYCSFHRFTCVLW [Phage-1743] | class 1 |
| QCVWDNFNYWMDCD [Phage-1753] | class 0 |
| SKLLCVPPWMCYHV [Phage-1744] | class 1 |
| QCVWDLTNYWMNCD [Phage-1756] | class 0 |
| QLPCHYWGEWCPQA [Phage-1745] | class 0 |
| YCWVDADMWLIFRC [Phage-1749] | class 1 |
| FWECYSSFCRFVEG [Phage-1746] | class 1 |

INPUT: Evaluate MCQWDKINYWMDCD [Phage-1755] : Phage binding ELISA, Anti-PSMA Fab signal in the presence of PSMA at minimum 0.07?
OUTPUT: class 0

INPUT: Textbook exercise: given the entry PLCGTEEVWWECRL [Phage-1747] , state whether its Phage binding ELISA, Anti-PSMA Fab signal in the presence of PSMA is greater than or equal to 0.07.
OUTPUT: class 1
